pIC50: −log10 of the molar value.
Measure: pIC50

Lookup: pIC50 / human histamine 3 receptor (hH3R) (Homo sapiens (Human)) / CNC1CN(c2nc3ccc(Cl)nc3n3cnnc23)C1
< 4.00

Request body: readout pIC50, system human histamine 3 receptor (hH3R) (Homo sapiens (Human)), query Cc1nc2c(N3CC(N(C)C(=O)OC(C)(C)C)C3)nc3ncc(Cl)cc3c2o1 . Return the value.
< 4.00

Item CNC1CN(c2nc3ncc(Br)cc3c3cc(C)nn23)C1 with human histamine 3 receptor (hH3R) (Homo sapiens (Human)) - pIC50?
< 4.00

For human histamine 3 receptor (hH3R) (Homo sapiens (Human)), provide pIC50 of CNC1CN(c2nc3ncc(Br)cc3n3cccc23)C1 please.
< 4.00

For human histamine 3 receptor (hH3R) (Homo sapiens (Human)), provide pIC50 of CCc1cnc2nc(N3CC(NC)C3)c3nncn3c2c1 please.
< 4.00

pIC50 of Cc1nc2c3cc(Cl)cnc3nc(N3CCN(C)CC3)n2n1 on human histamine 3 receptor (hH3R) (Homo sapiens (Human))?
< 4.00

API: value(readout= pIC50, system= human histamine 3 receptor (hH3R) (Homo sapiens (Human)), query= CN1CCN(c2nc3ncc(Cl)cc3c3nc(C4CC4)nn23)CC1 )
< 4.00

Enter reported pIC50 observed with human histamine 3 receptor (hH3R) (Homo sapiens (Human)) for CNC1CN(c2nc3ncc(Cl)c(Cl)c3n3cnnc23)C1
Sequence (Q9Y5N1 whole entry): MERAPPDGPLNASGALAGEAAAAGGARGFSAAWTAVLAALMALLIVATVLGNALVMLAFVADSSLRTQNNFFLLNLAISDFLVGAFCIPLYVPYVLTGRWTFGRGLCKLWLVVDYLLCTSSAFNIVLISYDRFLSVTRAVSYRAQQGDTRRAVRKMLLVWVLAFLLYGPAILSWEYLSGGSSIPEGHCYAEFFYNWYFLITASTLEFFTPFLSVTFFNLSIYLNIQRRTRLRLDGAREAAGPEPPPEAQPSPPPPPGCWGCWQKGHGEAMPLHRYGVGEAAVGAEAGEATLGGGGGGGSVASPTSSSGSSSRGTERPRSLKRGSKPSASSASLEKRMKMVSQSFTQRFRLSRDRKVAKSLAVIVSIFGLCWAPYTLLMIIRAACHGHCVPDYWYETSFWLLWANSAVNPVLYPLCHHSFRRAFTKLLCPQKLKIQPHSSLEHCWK
< 4.00

# value lookup — system human histamine 3 receptor (hH3R) (Homo sapiens (Human)), readout pIC50, item CC1(N)CN(c2nc3ncc(Br)cc3n3cnnc23)C1
< 4.00

Which measured pIC50 belongs to CN1CC2CN(c3nc4ncc(Cl)cc4n4cnnc34)CC2C1 (stereo not shown) , tested on human histamine 3 receptor (hH3R) (Homo sapiens (Human))?
< 4.00

Find the measured pIC50: item CCc1nc2c3cc(Cl)cnc3nc(N3CCN(C)CC3)n2n1 , target or system human histamine 3 receptor (hH3R) (Homo sapiens (Human)).
< 4.00

Hello, I am looking for reported pIC50 with human histamine 3 receptor (hH3R) (Homo sapiens (Human)) for Clc1cnc2nc(N3CC4CCCNC4C3)c3nncn3c2c1 (stereo not shown) . Could you help?
< 4.00

Given the entry Cn1cc2c(n1)c(N1CCNCC1)nc1ncc(Cl)cc12 , what pIC50 was observed with human histamine 3 receptor (hH3R) (Homo sapiens (Human))?
< 4.00

Give the reported pIC50 for CNC1CN(c2nc3ncc(C#N)cc3n3cnnc23)C1 (system: human histamine 3 receptor (hH3R) (Homo sapiens (Human))).
< 4.00

Enter reported pIC50 observed with human histamine 3 receptor (hH3R) (Homo sapiens (Human)) for CNC1(C)CN(c2nc3ncc(Br)cc3n3cnnc23)C1
< 4.00

Please provide the recorded pIC50 for CN[C@@H]1CCN(c2nc3cc(Cl)cnc3n3cnnc23)C1 , tested on human histamine 3 receptor (hH3R) (Homo sapiens (Human)).
< 4.00

// fetch human histamine 3 receptor (hH3R) (Homo sapiens (Human)) pIC50 for CN1CCN(c2nc3ncc(Cl)cc3c3cn(C)nc23)CC1
4.01

What reported pIC50 corresponds to CN1CCN(c2nc3ncc(I)cc3n3cnnc23)CC1 on human histamine 3 receptor (hH3R) (Homo sapiens (Human))?
< 4.00

Recorded pIC50 for CN[C@@H]1CCN(c2nc3ncc(Br)cc3n3cnnc23)C1 with human histamine 3 receptor (hH3R) (Homo sapiens (Human)), please?
< 4.00
